Origin of the recorded values: patent US20230414629A1

# PROCEDURE_DETAILS: Plasma pharmacokinetics in C57/BL6 mice
# Type: in vivo
# CONDITION_CONTEXT: mouse, in vivo, po
MEASURED_ATTRIBUTE: bioavailability

bioavailability for CN1CCC[C@H](CN2c3ccccc3Sc3ccccc32)C1 [(S)-mepazine] is 25 to 35%

* * *

# PROCEDURE_DETAILS: Plasma pharmacokinetics in C57/BL6 mice
# Type: in vivo
# CONDITION_CONTEXT: C57/BL6, mouse; single dose 16 mg/kg IV, plasma over 8 hours; read-out: volume of distribution (Vss)
MEASURED_ATTRIBUTE: Vd (L/kg)
The response must be a number in L/kg with no trailing unit.

Vd for CN1CCC[C@H](CN2c3ccccc3Sc3ccccc32)C1 [(S)-mepazine] is 22.6
